# Tested on: HSkMC (human skeletal muscle cells)
# Test Summary: cytotoxicity call (relative viability < 0.9)
# Experimental Parameters: 10 µM
In all, about 39,000 compounds went through this assay and about 1,500 (3.8%) were called active. The list comes from a sample in which actives are over-represented; it also holds close analogues and randomly drawn compounds.
Respond only with the outcome that fits, drawn from active, inactive

Record lookup: outcome of this test for C[C@H]1CCCCO[C@H](CN(C)CC2CC2)[C@@H](C)CN([C@@H](C)CO)C(=O)c2cc(NC(=O)C3CCCCC3)ccc2O1 ? inactive

// outcome(item) with item = C[C@H](CO)N1C[C@H](C)[C@H](CN(C)C(=O)Nc2cccc3ccccc23)Oc2c(NS(=O)(=O)c3ccc(Cl)cc3)cccc2C1=O inactive

Any idea what this test logged for COc1ccc(S(=O)(=O)Nc2ccc3c(c2)C(=O)N([C@@H](C)CO)C[C@H](C)[C@H](CN(C)Cc2ccc(C(F)(F)F)cc2)OCCCC[C@H](C)O3)cc1 ? active

# lookup: test call for CC(C)=C[C@H]1[C@@H](c2nc3cc(Br)ccc3o2)C1(C)C inactive

Dear all, I need the recorded test outcome for COc1cccc(-n2cc(C(=O)NO)nn2)c1 , thank you. inactive

Any idea what this test logged for Cc1noc(C)c1S(=O)(=O)Nc1ccc2c(c1)C(=O)N([C@H](C)CO)C[C@H](C)[C@@H](CN(C)Cc1ccc(C(F)(F)F)cc1)OCCCC[C@@H](C)O2 ? inactive

Assay result, entry O=C(C[C@@H]1C[C@H]2c3cc(NC(=O)Nc4ccc(C(F)(F)F)cc4)ccc3O[C@H]2[C@@H](CO)O1)NCc1cc(F)ccc1F — outcome? inactive

What did the test return for Cc1ccc(S(=O)(=O)Nc2ccc3c(c2)C(=O)N([C@@H](C)CO)C[C@H](C)[C@@H](CN(C)Cc2ccc(Oc4ccccc4)cc2)O3)cc1 ? inactive

What outcome does the record of this test show for Cc1ccc(S(=O)(=O)Nc2ccc3c(c2)C(=O)N([C@@H](C)CO)C[C@@H](C)[C@@H](CN(C)Cc2ccc(Oc4ccccc4)cc2)O3)cc1 ? active

Tell me the recorded outcome of this test for COC(=O)c1ccc(Cn2cc(C(=O)NO)nn2)o1 . inactive

Query: recorded result category for C[C@@H]1CN([C@H](C)CO)C(=O)Cc2cc(NS(=O)(=O)c3ccc(Cl)cc3)ccc2O[C@H]1CN(C)Cc1ccc(C(=O)Nc2ccccc2N)cc1 in this test inactive

Hi, sorry to bother you, what did the test record for C[C@@H]1CN([C@H](C)CO)C(=O)Cc2cc(NC(=O)Nc3ccccc3)ccc2O[C@H]1CN(C)Cc1ccc(C(F)(F)F)cc1 ? active

Please indicate how the test categorized C[C@H]1CN([C@@H](C)CO)C(=O)Cc2cc(NC(=O)Nc3ccccc3)ccc2O[C@@H]1CN(C)Cc1ccc(C(F)(F)F)cc1 . active

What outcome does the record of this test show for COc1ccc(S(=O)(=O)Nc2ccc3c(c2)C(=O)N([C@H](C)CO)C[C@H](C)[C@H](CN(C)Cc2ccc(Oc4ccccc4)cc2)O3)cc1 ? inactive

Fill in: this test's call for C[C@H]1CN([C@@H](C)CO)S(=O)(=O)c2ccc(C#Cc3cccc(F)c3)cc2O[C@@H]1CN(C)S(=O)(=O)c1cn(C)cn1 is ___ inactive

Recorded test call requested for Cc1ccc(S(=O)(=O)Nc2ccc3c(c2)C(=O)N([C@@H](C)CO)C[C@@H](C)[C@H](CN(C)Cc2ccc(Oc4ccccc4)cc2)O3)cc1 inactive

Test call for this compound, please: COc1ccc(S(=O)(=O)Nc2ccc3c(c2)CC(=O)N([C@H](C)CO)C[C@H](C)[C@@H](CN(C)S(=O)(=O)c2ccccc2)O3)cc1 inactive

How did this test come out for C[C@H](CO)N1C[C@H](C)[C@H](CN(C)S(=O)(=O)c2ccccc2F)Oc2cc(C#Cc3ccccc3)ccc2S1(=O)=O ? inactive

Please share the test call associated with Cc1noc(C)c1S(=O)(=O)Nc1cccc2c1O[C@H](CN(C)S(=O)(=O)c1ccccc1)[C@H](C)CN([C@@H](C)CO)C2=O . inactive

Called result for Cc1ccc(S(=O)(=O)N(C)C[C@@H]2OCCCC[C@H](C)Oc3ccc(NC(=O)CCCCCC(=O)Nc4ccccc4N)cc3C(=O)N([C@H](C)CO)C[C@@H]2C)cc1 inactive

Each compound tested received a call. Report the one for C[C@H]1CN([C@@H](C)CO)S(=O)(=O)c2ccc(C#CC(C)(C)O)cc2O[C@H]1CN(C)C(=O)C1CCCCC1 . inactive

Hi team, can someone confirm the assay call for CC(C)C#Cc1ccc2c(c1)O[C@@H](CN(C)C(=O)Cc1ccccn1)[C@H](C)CN([C@H](C)CO)S2(=O)=O ? inactive

Assay outcome for C[C@H]1CN([C@@H](C)CO)C(=O)c2cc(NS(=O)(=O)c3ccccc3)ccc2O[C@H]1CN(C)Cc1ccc(Oc2ccccc2)cc1 : what was it? inactive

What classification did CN(C)CCCNC(=O)[C@@H]1[C@@H](CO)[C@@H]2Cn3c(ccc(-c4cccc(C(=O)N(C)C)c4)c3=O)[C@H]1N2 end up with in this test? inactive

Name the outcome recorded for C[C@@H]1CN([C@@H](C)CO)C(=O)c2cc(NC(=O)Nc3ccccc3)ccc2O[C@@H](C)CCCCO[C@@H]1CN(C)C(=O)Cc1ccccc1 in the assay. inactive

Tell me the recorded outcome of this test for COc1ccc(-n2cc(C(=O)NO)nn2)cc1 . active

Outcome logged for COc1ccc(S(=O)(=O)Nc2ccc3c(c2)C(=O)N([C@@H](C)CO)C[C@H](C)[C@H](CN(C)Cc2ccc(C(F)(F)F)cc2)OCCCC[C@@H](C)O3)cc1 in this assay: inactive

What did this assay record as the result for C[C@@H]1CN([C@H](C)CO)C(=O)c2cc(NS(=O)(=O)c3ccccc3)ccc2O[C@@H]1CN(C)Cc1ccc(Oc2ccccc2)cc1 ? active
